Reference source for all entries: paper PMC10222270

System: SARS CoV-2 M^pro (Severe acute respiratory syndrome coronavirus 2)
Construct: The main protease (M^pro) is a part of the polyprotein chain, also named 3C-like protease; SUMO (cleaved yes); His; made in house; host or cells: Escherichia coli BL21(DE3)
Test Description: biochemical
Format: biochemical
Condition Context: read-out: Inhibition%(80μM)
Here, each record is paired with measured inhibition at 80 µM data.
A number alone suffices; assume %.

Example results:
>>> val("CC(C)=CCC/C(C)=C/Cc1cc(-c2coc3cc(O)ccc3c2=O)ccc1O")
100
>>> val("CCCCCC/C=C\\CCCCCCCc1cccc(O)c1C(=O)O")
104
>>> val("Oc1cc2c(cc1O)[C@@H]1c3ccc(O)c(O)c3OC[C@]1(O)C2")
104

Response field inhibition at 80 µM (SARS CoV-2 M^pro (Severe acute respiratory syndrome coronavirus 2)) for item `C=C1C(=O)[C@]23[C@H](O)[C@H]1CC[C@H]2[C@@]12CO[C@]3(O)[C@@H](O)[C@@H]1C(C)(C)CC[C@@H]2O` : 84.3

---

System: SARS CoV-2 M^pro (Severe acute respiratory syndrome coronavirus 2)
Construct: The main protease (M^pro) is a part of the polyprotein chain, also named 3C-like protease; SUMO (cleaved yes); His; made in house; host or cells: Escherichia coli BL21(DE3)
Test Description: nanoDSF thermal shift assay (TSA)
Type: binding
Condition Context: compound 3.125 μM, versus M^pro+DMSO
Counter-ions that a name gives are not always drawn.
Here, each record is paired with measured △T data.

Example results:
>>> val("COc1cc(O)c2c(c1)oc(=O)c1c3cc(O)c(O)cc3oc21 [wedelolactone, Wedelolactone]")
"0.3 °C"
>>> val("Cc1c(=O)c(=O)c2c3c[nH]c4c(C)c(=O)c(=O)c(c5c[nH]c1c52)c43 [melanin, Melanin]")
"0.1 °C"
>>> val("O=c1cc(-c2ccccc2)oc2cc(O)c(O)c(O)c12 [baicalein, Baicalein, reference compound]")
"0.3 °C"

Here is another compound to look at.
Response field △T (SARS CoV-2 M^pro (Severe acute respiratory syndrome coronavirus 2)) for item CC(C)CCCC(C)C1CCC2C3CC=C4CC(OS(=O)(=O)O)CCC4(C)C3CCC12C (stereo not shown) [cholesteryl sodium sulfate, Cholesteryl sodium sulfate] : 0.1 °C

---

System: SARS CoV-2 M^pro (Severe acute respiratory syndrome coronavirus 2, UniProt P0DTD1)
Construct: The main protease (M^pro) is a part of the polyprotein chain, also named 3C-like protease; SUMO (cleaved yes); His; made in house; host or cells: Escherichia coli BL21(DE3)
Test Description: biochemical
Assay type: biochemical
Condition Context: read-out: Inhibition%(80μM)
Measurement Name: inhibition at 80 µM (%)
A number alone suffices; assume %.

>>> val("COc1cc(C(=S)N2CCOCC2)ccc1O [vanitiolide, Vanitiolide]")
99.1
>>> val("OCCc1ccc(O)c(O)c1 [3,4-Dihydroxyphenylethanol]")
101
>>> val("CCCCCCCCCCCCCC(=O)O")
85
>>> val("CCCCCC/C=C\\CCCCCCCCCc1cccc(O)c1C(=O)O")
102
>>> val("CC(C)c1cc2c(c(O)c1O)[C@@]13CCCC(C)(C)[C@@H]1C[C@@H]2OC3=O")
74.5

Reported inhibition at 80 µM ( `COc1cc(O)c2c(c1)oc(=O)c1c3cc(O)c(O)cc3oc21` ) = 102

Reported inhibition at 80 µM ( `NCCCN(CCCCNCCCNC(=O)CCc1ccc(O)c(O)c1)C(=O)CCc1ccc(O)c(O)c1` ) = 104
